test system: IGROV-1; experiment: SRB colorimetric assay of cell growth and viability, IGROV-1; format: cell-based, human; conditions: IGROV; 48 hours exposure
Where a SMILES comes first, the peptide text is derived from it. Bridges are numbered along the chain shown (N, C = ends). [ ]: non-standard residue; d: D form. The star is where a group is joined. d(aIle) = CC[C@H](C)[C@@H](N)C(=O)O; d(aThr) = C[C@@H](O)[C@@H](N)C(=O)O; Hexanoyl(5-Me) = CC(C)CCCC(=O)*; Orn = NCCC[C@H](N)C(=O)O; Dhb = C/C=C(\N)C(=O)O
Outcome Measure: GI50 (nM)
Number in nM, nothing else.

INSERT INTO measurements (compound, outcome_measure, measured) VALUES
  ('C/C=C1\NC(=O)[C@H](Cc2ccccc2)NC(=O)[C@@H](C(C)C)NC(=O)[C@@H]([C@@H](C)CC)NC(=O)[C@H](NC(=O)[C@H](NC(=O)[C@H](CCCN)NC(=O)[C@H]2CCCN2C(=O)[C@H](NC(=O)[C@@H](NC(=O)[C@H](C)NC(=O)[C@H](NC(=O)CCCC(C)C)C(C)C)C(C)C)C(C)C)[C@@H](C)CC)[C@@H](C)OC(=O)[C@H](C(C)C)NC1=O [Compound 112, [Ala^12]-KF] ({Hexanoyl(5-Me)}-[dV]AV[dV][dP][Orn][d(aIle)][d(aThr)][d(aIle)][dV]F[Dhb]V; ester 8-C)', 'GI50', 1310);

Now consider the entry below.
Noted for C/C=C1\NC(=O)[C@H](Cc2ccccc2)NC(=O)[C@@H](C(C)C)NC(=O)[C@@H]([C@@H](C)CC)NC(=O)[C@H](NC(=O)[C@H](NC(=O)[C@H](CCCN)NC(=O)[C@H]2CCCN2C(=O)[C@H](NC(=O)[C@@H](NC(=O)[C@@H](NC(=O)[C@@H](CCCN)NC(=O)CCCC(C)C)[C@@H](C)O)C(C)C)C(C)C)[C@@H](C)CC)[C@@H](C)OC(=O)[C@H](C(C)C)NC1=O [Compound 118, [D-Orn^13]-KF] : its GI50 reads 1450

---

test system: LNCaP; test: SRB colorimetric assay of cell growth and viability, LNCaP; assay type: cell-based, human; settings: 48 hours exposure, SRB; read-out: LC50 LN-caP
Measured CC50 by item
Use µM as the unit, but write only the number.

Kindly note the recorded CC50 for C/C=C1\NC(=O)[C@H](Cc2ccccc2)NC(=O)[C@@H](C(C)C)NC(=O)[C@@H]([C@@H](C)CC)NC(=O)[C@H](NC(=O)[C@H](NC(=O)[C@H](CCCNC(=O)C(F)(F)F)NC(=O)[C@H]2CCCN2C(=O)[C@H](NC(=O)[C@@H](NC(=O)[C@@H](NC(=O)[C@H](NC(=O)CC[C@@H](C)CC)C(C)C)[C@@H](C)OC(=O)C(F)(F)F)C(C)C)C(C)C)[C@@H](C)CC)[C@@H](C)OC(=O)[C@H](C(C)C)NC1=O [Compound 95] , which is 5.99

// C/C=C1\NC(=O)[C@H](Cc2c(F)c(F)c(F)c(F)c2F)NC(=O)[C@@H](C(C)C)NC(=O)[C@@H]([C@@H](C)CC)NC(=O)[C@H](NC(=O)[C@H](NC(=O)[C@H](CCCN)NC(=O)[C@H]2CCCN2C(=O)[C@H](NC(=O)[C@@H](NC(=O)[C@@H](NC(=O)[C@H](NC(=O)CC[C@@H](C)CC)C(C)C)[C@@H](C)O)C(C)C)C(C)C)[C@@H](C)CC)[C@@H](C)OC(=O)[C@H](C(C)C)NC1=O [Compound 71, [Phe(F5)^3, (4S)-MeHex^14]-KF] : CC50 value = 2.7

Record C/C=C1\NC(=O)[C@H](Cc2ccccc2)NC(=O)[C@@H](C(C)C)NC(=O)[C@@H]([C@@H](C)CC)NC(=O)[C@H](NC(=O)[C@H](NC(=O)[C@H](CCCC[N+](C)(C)C)NC(=O)[C@H]2CCCN2C(=O)[C@H](NC(=O)[C@@H](NC(=O)[C@@H](NC(=O)[C@H](NC(=O)CC[C@@H](C)CC)C(C)C)[C@@H](C)O)C(C)C)C(C)C)[C@@H](C)CC)[C@@H](C)OC(=O)[C@H](C(C)C)NC1=O [Compound 93, [N^ε(Me)3-Lys^8, (4S)-MeHex^14]-KF] . Reported CC50: 5.88

Input C/C=C1\NC(=O)[C@H](Cc2ccccc2)NC(=O)[C@@H](C(C)C)NC(=O)[C@@H]([C@@H](C)CC)NC(=O)[C@H](NC(=O)[C@H](NC(=O)[C@H](CCCN)NC(=O)[C@H]2CCCCN2C(=O)[C@H](NC(=O)[C@@H](NC(=O)[C@@H](NC(=O)[C@H](NC(=O)CC[C@@H](C)CC)C(C)C)[C@@H](C)O)C(C)C)C(C)C)[C@@H](C)CC)[C@@H](C)OC(=O)[C@H](C(C)C)NC1=O [Compound 60, [D-Pip^9, (4S)-MeHex^14]-KF] . Output CC50: 5.43
